# SYSTEM_NAME: T1, recombinant fibronectin domain ED-B (His)6 (human, UniProt P02751 1266-1356)
# T1 construct: domain: ED-B; Produced by standard procedures; immobilised on ELISA plates or on the BIAcore chip; also called recombinant ED-B; human ED-B
# PROTOCOL_DESCRIPTION: SPR (BIAcore), ED-B immobilised on chip (about 100 RU), Fab in flow
# Protocol: F1-Chips (Biacore, Sweden) were coated with about 200 RU of ED-B (30 μg/ml, 10 mmol of acetate buffer, pH 4.0) and reference flow cells with a corresponding amount of human serum albumin (20 μg/ml, 10 mmol of acetate buffer, pH 4.5) with use of standard EDC-NHS-amine-coupling chemistry. The antigen density was reduced to about 100 RU for the Fab characterization of the second maturation. […] All sensograms were evaluated with use of BIA evaluation software 3.1.
Record form. Attribute: Kd. Fill in for each entry.
Remember to put the unit after the number in your answer.

Look at this binder and give its reported Kd. MOR03252 (Fab, V domains shown, Fab, H-CDR2 derivative of MOR03062) VH: QVQLVESGGGLVQPGGSLRLSCAASGFTFSSYGMHWVRQAPGKGLEWVSVISNYSWHIYYADSVKGRFTISRDNSKNTLYLQMNSLRAEDTAVYYCARNKVGFDVWGQGTLVTVSS VL: DIALTQPASVSGSPGQSITISCTGTSSDGGGYNTVSWYQQHPGKAPKLMIYYVHKRPSGVSNRFSGSKSGNTASLTISGLQAEDEADYYCQSWDLSVHQVVFGGGTKLTVLG
0.03 nM

Which Kd reading was recorded for the binder MOR03251 (Fab, V domains shown, Fab, H-CDR2 derivative of MOR03062) VH: QVQLVESGGGLVQPGGSLRLSCAASGFTFSSYGMHWVRQAPGKGLEWVSVISNMSYTIYYADSVKGRFTISRDNSKNTLYLQMNSLRAEDTAVYYCARNKVGFDVWGQGTLVTVSS VL: DIALTQPASVSGSPGQSITISCTGTSSDGGGYNTVSWYQQHPGKAPKLMIYYVHKRPSGVSNRFSGSKSGNTASLTISGLQAEDEADYYCQSWDLSVHQVVFGGGTKLTVLG ?
0.07 nM

Returns the measured Kd for the input binder. Input: MOR03255 (Fab, V domains shown, Fab, H-CDR2 derivative of MOR03062) VH: QVQLVESGGGLVQPGGSLRLSCAASGFTFSSYGMHWVRQAPGKGLEWVSVISNRSSYIYYADSVKGRFTISRDNSKNTLYLQMNSLRAEDTAVYYCARNKVGFDVWGQGTLVTVSS VL: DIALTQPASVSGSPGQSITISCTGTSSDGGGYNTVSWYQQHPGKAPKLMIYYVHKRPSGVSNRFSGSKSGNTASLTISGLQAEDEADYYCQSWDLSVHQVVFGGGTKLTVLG
0.03 nM

// provenance: patent US20060115428A1
